experiment: Inhibition of PKCbeta in rat RBL2H3 cells assessed as inhibition of mouse anti-DNP IgE-stimulated beta-hexosaminidase release preincubated for 15 mins followed by mouse anti-DNP IgE stimulation and measured after 3 hrs by 4-nitropheny1-2-acetamide-2-deoxy-beta-glucopyranoside substrate based colorimetric method
experimentalReadout: IC50 (µM)
Give bare numbers, in µM.

According to the records, this molecule O=C1O/C(=C(/C(=O)O)c2ccc(O)c(O)c2)C(O)=C1c1ccc(O)c(O)c1 displays IC50 of 10.4

Measured values drawn from BindingDB's records for doi:10.1016/j.bmcl.2019.126886 for this set.
